Provenance of the data: ChEMBL document CHEMBL1201862

- Tested on: LOX IMVI
- TEST_SUMMARY: NCI tumour cell line growth inhibition, 48 h
Activity calls are given as the source filed them. Cut-off read from the data, not from the text of the source: active = GI50 up to about 1.1 µM and inactive = higher. Where a SMILES comes first, the peptide text is derived from it. [ ]: non-standard residue; d: D form. The star is where a group is joined. ξ: configuration not given here. ξF = NC(Cc1ccccc1)C(=O)O; Cbz = O=C(OCc1ccccc1)*; Aib = CC(C)(N)C(=O)O
Outcomes: true (1) (active), false (0) (inactive)

COMPOUND	CLASSIFICATION
N#Cc1nc(/C=C/c2cccs2)oc1N	false (0)
O=c1[nH]cc(NCCCl)c(=O)[nH]1	false (0)
C/C=C/[C@@H](C(=O)OC)N1C(=O)c2ccccc2[C@H]1O	false (0)
COc1ccccc1NCC(=O)Nn1c(C)nc2ccc(S(=O)(=O)Nc3ccccc3OC)cc2c1=O	false (0)
C=CCNC1=NC(=O)C(CC(=O)Nc2cccc(Cl)c2)S1 (stereo not given)	false (0)
O=S(=O)(OI(O)CC(F)(F)F)C(F)(F)F	false (0)
C/C=C1\CN(C(=O)OC(C)(C)C)C1C(=O)OC(C)(C)C (stereo not given)	false (0)
CN(C)CCn1c(=O)c2ccc3c4c(nn3CCN(C)C)c3cc(O)ccc3n(c1=O)c24	true (1)
Cn1nc(-c2ccccc2)c(N=[N+]=[N-])cc1=O	false (0)
CCC(C(C)N1CC(=O)NC(=O)C1)N1CC(=O)NC(=O)C1 (stereo not given)	false (0)
NCCCNC1(c2cc3ccccc3s2)CCCCC1	false (0)
Cc1ccc(S(=O)(=O)NC(=O)Nc2nc(Cl)cc(Cl)n2)cc1	false (0)
[N-]=[N+]=NCc1cccc(Nc2cc(=O)[nH]c(=O)[nH]2)c1	false (0)
C[N+](C)(N)c1nc(N)c(C#N)c(C#N)c1C#N	false (0)
Cc1cc(-n2c(/C=C/c3ccc(Cl)cc3)nc3cc(Cl)ccc3c2=O)on1	false (0)
COC(=O)c1ccccc1/C=C1\Cc2c(C)cc(C)cc2C1=O	false (0)
CCNC(=O)Cc1nc2c(O)ncnc2n1C1OC(CO)C(O)C1O (stereo not given)	false (0)
CCCCCCCCCCCCCC(=O)OCC1OC(n2cc(F)c(=O)[nH]c2=O)C(NC(=O)OCc2ccccc2)C(OC(=O)CCCCCCCCCCCCC)C1O (stereo not given)	false (0)
COC(=O)C(C)(C)NC(=O)C(Cc1ccccc1)NC(=O)C(C)(C)NC(=O)OCc1ccccc1 (stereo not given) (Cbz-[Aib]-[ξF]-[Aib]-OMe)	false (0)
Cc1ccc(C)c(NC(=O)CC/C(=N\NC(=O)C(N)=O)C(C)C(=O)c2ccc(O)cc2)c1 (stereo not given)	false (0)
NS(=O)(=O)c1ccc(NC(NC(=O)C(C(F)(F)F)C(F)(F)F)(C(F)(F)F)C(F)(F)F)cc1	false (0)
CC[C@@]1(O)C(=O)OCc2c1cc1n(c2=O)Cc2c-1nc1ccccc1c2/C=N\NC(=O)C(N)=O	true (1)
Cc1ccccc1C1OC1C(=O)c1ccccc1N (stereo not given)	false (0)
CC1Cc2c(N)nc(N3CCOCC3)nc2NC1=O (stereo not given)	false (0)
Nc1c2ccccc2nc2ccc(C(=O)Nc3ccc(S(N)(=O)=O)cc3)cc12	false (0)
N#CNC1=NC(CCCC(=O)Nc2cccc([N+](=O)[O-])c2)=C(c2nc3ccccc3[nH]2)C(N)N1 (stereo not given)	false (0)
CC1CC[C@@]2(OC1)OC1C[C@H]3[C@@H]4CC[C@H]5CC(OC6OC(CO)C(OC7OC(CO)C(O)C(O)C7OC7OC(CO)C(O)C(O)C7O)C(O)C6O)CCC5(C)[C@H]4CCC3(C)C1[C@@H]2C (stereo not given in full)	false (0)
O=C(NCCCCCCCCNC(=O)c1cnc2ccccc2n1)c1cnc2ccccc2n1	false (0)
C#CCOCn1cc(C)c(=O)[nH]c1=O	false (0)
NCCc1ccc2c(c1)C(=O)c1c(O)ccc(O)c1C2=O	false (0)
COc1cc(C)c2c(=O)c3ccccc3n(C)c2c1	false (0)
CCOC(=O)C1(Cc2ccccc2)Cc2cc3c(cc2C1=O)CCC3 (stereo not given)	false (0)
CCC(=O)ONC(=O)Cn1ccc([N+](=O)[O-])n1	false (0)
O=C1c2cc([N+](=O)[O-])sc2C(=O)c2cc([N+](=O)[O-])sc21	false (0)
COC1/C=C/C(C)C(C(C)C(OC)C(C)CCC(=O)C(C)C(C/C=C/N(C)C=O)OC)OC(=O)C=CC2OC2(C)CC(OC)C(OC)C2=CC(=O)O[C@@H](C(C)C(OC)CC(OC)/C=C/C(C)C(O)C1)[C@H]2O (stereo not given in full)	true (1)
O=C(O)CCC1(CCC(=O)O)CCCCCCCCC(CCC(=O)O)(CCC(=O)O)C(=O)C1=O	false (0)
COc1ccc(C(=O)c2[nH]c(Nc3ccc(Cl)cc3)c(C(=S)Nc3ccccc3)c2N)cc1	false (0)
O=C(O)c1ccc(S(=O)(=O)c2ccccc2[N+](=O)[O-])cc1	false (0)
CC1(C)c2ccccc2C(C)(C)C(C(=O)Nc2ccccc2)C1C(=O)O (stereo not given)	false (0)
CC(=O)NC(C)(C)C1CC=C(C)CC1 (stereo not given)	false (0)
